- Assay protocol: PK of five RC components in pituitrin-induced myocardial ischemia (MDG) rats after oral RC extract, HPLC-QQQ-MS/MS, DAS
- Type: in vivo, SD rats
- Measurement parameters: SD, rat, plasma, po, 2 g/kg, according to the PK results, group not given, oral RC extract; read-out: Tmax (approximate)
Measure: Tmax

Please look at this molecule and report its Tmax: `OCCc1ccc(O)cc1`
~1 h

Tell me its Tmax given OC[C@H]1O[C@@H](OCCc2ccc(O)cc2)[C@H](O)[C@@H](O)[C@@H]1O [Salidroside, salidroside] as the entry.
~1 h

* * *

- Assay protocol: PK of five RC components in pituitrin-induced myocardial ischemia (MDG) rats after oral RC extract, HPLC-QQQ-MS/MS, DAS
- Format: in vivo, SD rats
- Measurement parameters: rat; MDG (myocardial ischemia) rats, oral RC extract 2 g/kg, plasma, mean ± SD, n = 6; read-out: t1/2z (converted)
- Method: The drug concentration in plasma was calculated using the standard curve, and the mean blood concentration was plotted against the time to obtain the mean blood concentration–time curve (Figure 4). The rat model of MI was made with Pit. The rats were divided into a sham operation group (SG), sham operation administration group (SDG), model group (MG), and model administration group (MDG) (n = 6 for each group). […]
Entries annotated with measured half-life

>>> result("OCCc1ccc(O)cc1")
"15.6 h"

Consider the record given below.
State its half-life for this compound: OC[C@H]1O[C@@H](OCCc2ccc(O)cc2)[C@H](O)[C@@H](O)[C@@H]1O [Salidroside, salidroside]
15.4 h

* * *

- Assay protocol: PK of five RC components in pituitrin-induced myocardial ischemia (MDG) rats after oral RC extract, HPLC-QQQ-MS/MS, DAS
- Assay type: in vivo, SD rats
- Measurement parameters: rat, in vivo; MDG (myocardial ischemia) rats, oral RC extract 2 g/kg, plasma, mean ± SD, n = 6; read-out: Tmax
Measure: Tmax (min)
Just the number please, in min, no unit attached.

Given the compound O=c1c(O)c(-c2ccc(O)cc2)oc2cc(O)cc(O)c12 [Kaempferol, kaempferol] , write its reported Tmax.
45

* * *

- Assay protocol: PK of five RC components in pituitrin-induced myocardial ischemia (MDG) rats after oral RC extract, HPLC-QQQ-MS/MS, DAS
- Format: in vivo, SD rats
- Measurement parameters: rat, in vivo; MDG (myocardial ischemia) rats, oral RC extract 2 g/kg, plasma, mean ± SD, n = 6; read-out: MRT(0−)
Measure: MRT (h)
Express the result in h but write the number alone.

Give the reported MRT for this compound. `O=c1c(O)c(-c2ccc(O)cc2)oc2cc(O)cc(O)c12`
9.05

* * *

- Assay protocol: PK of five RC components in sham operation administration (SDG, normal) rats after oral RC extract, HPLC-QQQ-MS/MS, DAS
- Format: in vivo, SD rats
- Measurement parameters: rat, in vivo; SDG rats, oral RC extract 2 g/kg, plasma, mean ± SD, n = 6; read-out: CLz/F (converted)
Measure: CL/F

Given the compound `O=c1c(O)c(-c2ccc(O)cc2)oc2cc(O)cc(O)c12` , write its reported CL/F.
203 mL/min/kg

* * *

- Assay protocol: PK of five RC components in sham operation administration (SDG, normal) rats after oral RC extract, HPLC-QQQ-MS/MS, DAS
- Assay type: in vivo, SD rats
- Measurement parameters: SD, rat, in vivo, po, 2 g/kg
Measure: half-life (h)
Value expressed in h; do not type the unit.

Please report half-life for the following molecule: O=C(O)c1cc(O)c(O)c(O)c1 [Gallic Acid, gallic acid]
10.2

* * *

- Assay protocol: PK of five RC components in pituitrin-induced myocardial ischemia (MDG) rats after oral RC extract, HPLC-QQQ-MS/MS, DAS
- Assay type: in vivo, SD rats
- Measurement parameters: rat; MDG (myocardial ischemia) rats, oral RC extract 2 g/kg, plasma, mean ± SD, n = 6; read-out: Cmax
Measure: Cmax (ng/mL)
Report only the number, with the unit ng/mL understood.

>>> result_number("OCCc1ccc(O)cc1")
143

# return recorded Cmax for entry OC[C@H]1O[C@@H](OCCc2ccc(O)cc2)[C@H](O)[C@@H](O)[C@@H]1O [Salidroside, salidroside]
1350

* * *

Recorded Tmax by entry
- Assay protocol: PK of five RC components in pituitrin-induced myocardial ischemia (MDG) rats after oral RC extract, HPLC-QQQ-MS/MS, DAS
- Format: in vivo, SD rats
- Measurement parameters: SD, rat, plasma, po, 2 g/kg, MDG (myocardial ischemia) rats, oral RC extract 2 g/kg, plasma, mean ± SD, n = 6; read-out: Tmax
Numeric answer only, unit min assumed.

>>> result_number("OCCc1ccc(O)cc1 [Tyrosol, tyrosol]")
57.6

For the next question, use this molecule.
Note Tmax for the molecule shown: OC[C@H]1O[C@@H](OCCc2ccc(O)cc2)[C@H](O)[C@@H](O)[C@@H]1O [Salidroside, salidroside]
49.8

* * *

- Assay protocol: PK of five RC components in sham operation administration (SDG, normal) rats after oral RC extract, HPLC-QQQ-MS/MS, DAS
- Assay type: in vivo, SD rats
- Measurement parameters: rat, in vivo; SDG rats, oral RC extract 2 g/kg, plasma, mean ± SD, n = 6; read-out: MRT(0−∞)
Measure: MRT inf (h)
Only the number, expressed in h, is required.

Please report the measured MRT inf for O=c1c(O)c(-c2ccc(O)cc2)oc2cc(O)cc(O)c12 [Kaempferol, kaempferol]
19.4

* * *

- Assay protocol: PK of five RC components in pituitrin-induced myocardial ischemia (MDG) rats after oral RC extract, HPLC-QQQ-MS/MS, DAS
- Type: in vivo, SD rats
- Measurement parameters: SD, rat, in vivo, po, 2 g/kg
Measure: MRT
The reply should consist of the numeric value with the unit placed after it.

Complete the entry with MRT for `O=C(O)c1cc(O)c(O)c(O)c1`
5.53 h

* * *

- Assay protocol: PK of five RC components in pituitrin-induced myocardial ischemia (MDG) rats after oral RC extract, HPLC-QQQ-MS/MS, DAS
- Type: in vivo, SD rats
- Measurement parameters: rat, in vivo; MDG (myocardial ischemia) rats, oral RC extract 2 g/kg, plasma, mean ± SD, n = 6; read-out: CLz/F (converted)
Measure: CL/F (mL/min/kg)
Lab book: enter the figure in mL/min/kg, no units written.

Tell me CL/F reported for `O=c1c(O)c(-c2ccc(O)cc2)oc2cc(O)cc(O)c12`
140

* * *

- Assay protocol: PK of five RC components in pituitrin-induced myocardial ischemia (MDG) rats after oral RC extract, HPLC-QQQ-MS/MS, DAS
- Type: in vivo, SD rats
- Measurement parameters: SD, rat, in vivo, po, 2 g/kg
Measure: Cmax (ng/mL)
Give a bare numeral; the unit ng/mL is implied.

Given the compound O=C(O)c1cc(O)c(O)c(O)c1 [Gallic Acid, gallic acid] , write its reported Cmax.
130

* * *

- Test system: CK
- Assay protocol: PK-PD sigmoid-Emax model, PD index CK in MDG rats
- Type: in vivo, SD rats
Reported Ke0 values for the following compounds.
No unit in the answer, only the number.

>>> result_number("O=c1c(O)c(-c2ccc(O)cc2)oc2cc(O)cc(O)c12")
2.998
>>> result_number("OCCc1ccc(O)cc1")
2.998
>>> result_number("O=C(O)c1cc(O)c(O)c(O)c1")
1.909

Name the recorded Ke0 of the item OC[C@H]1O[C@@H](OCCc2ccc(O)cc2)[C@H](O)[C@@H](O)[C@@H]1O [Salidroside, salidroside] in your answer.
2.698

* * *

# key: entry, value: Ke0
- Tested on: HBDH
- Assay protocol: PK-PD sigmoid-Emax model, PD index HBDH in MDG rats
- Format: in vivo, SD rats
- Parameters: unit not given beside the values
Lab note: jot the number down without any unit.

Take a look at these entries with their results.
>>> result_number("O=c1c(O)c(-c2ccc(O)cc2)oc2cc(O)cc(O)c12")
0.928
>>> result_number("OC[C@H]1O[C@@H](OCCc2ccc(O)cc2)[C@H](O)[C@@H](O)[C@@H]1O [Salidroside, salidroside]")
0.46
>>> result_number("OCCc1ccc(O)cc1")
0.724

We next turn to a different compound, shown below.
Please give the documented Ke0 of `O=C(O)c1cc(O)c(O)c(O)c1`
0.439

* * *

- Assay protocol: PK of five RC components in sham operation administration (SDG, normal) rats after oral RC extract, HPLC-QQQ-MS/MS, DAS
- Type: in vivo, SD rats
- Measurement parameters: rat, in vivo; SDG rats, oral RC extract 2 g/kg, plasma, mean ± SD, n = 6; read-out: t1/2z (converted)
Measure: half-life (h)
Give just the number in h; leave the unit off.

Give reported half-life value for `O=c1c(O)c(-c2ccc(O)cc2)oc2cc(O)cc(O)c12`
14.1

* * *

- Assay protocol: PK of five RC components in pituitrin-induced myocardial ischemia (MDG) rats after oral RC extract, HPLC-QQQ-MS/MS, DAS
- Assay type: in vivo, SD rats
- Measurement parameters: rat, in vivo; MDG (myocardial ischemia) rats, oral RC extract 2 g/kg, plasma, mean ± SD, n = 6; read-out: MRT(0−∞)
- Method: The drug concentration in plasma was calculated using the standard curve, and the mean blood concentration was plotted against the time to obtain the mean blood concentration–time curve (Figure 4). The rat model of MI was made with Pit. The rats were divided into a sham operation group (SG), sham operation administration group (SDG), model group (MG), and model administration group (MDG) (n = 6 for each group). […]
Measure: MRT inf
Report field: quantity (unit follows the number).

Return value of MRT inf for input `O=c1c(O)c(-c2ccc(O)cc2)oc2cc(O)cc(O)c12` , no commentary.
30.9 h
